- ASSAYED_SYSTEM: human mTOR (Homo sapiens, UniProt P42345)
pIC50: −log10 of the molar value. Counter-ions that a name gives are not always drawn.
Kindly supply the reported pIC50 values for the records listed here.

Below, each entry is followed by its recorded pIC50 result.
| COMPOUND | ASSAYED_SYSTEM | pIC50 |
| --- | --- | --- |
| C[C@@]12COCCN1c1nc(-c3ccc(NC(=O)NC4CC4)cc3)ncc1N(CC1CC1)C2=O [Example 9] | human mTOR (Homo sapiens, UniProt P42345) | > 7.50 |
| CNC(=O)Nc1ccc(-c2ncc3c(n2)N2CCOCC2(C)C(=O)N3CC2CC2)cc1 (centres unmarked) [Example 1] | human mTOR (Homo sapiens, UniProt P42345) | > 7.50 |
| CNC(=O)Nc1ccc(-c2ncc3c(n2)N2CCOCC2(C)C(=O)N3CC(C)(C)C)cc1 (centres unmarked) [Example 28] | human mTOR (Homo sapiens, UniProt P42345) | > 7.50 |
| CNC(=O)Nc1ccc(-c2ncc3c(n2)N2CCO[C@@H](C)[C@@]2(C)C(=O)N3CC2CC2)cc1 [Example 18] | human mTOR (Homo sapiens, UniProt P42345) | > 7.50 |
| CCNC(=O)Nc1ccc(-c2ncc3c(n2)N2CCOC[C@@]2(C)C(=O)N3CC2CC2)cc1 [Example 7] | human mTOR (Homo sapiens, UniProt P42345) | > 7.50 |

// each compound listed below needs its pIC50
1. CCNC(=O)Nc1ccc(-c2ncc3c(n2)N2CCOCC2(C)C(=O)N3CC2CC2)cc1 (centres unmarked) [Example 5, TFA salt]
2. CNC(=O)Nc1ccc(-c2ncc3c(n2)N2CCOC[C@@]2(C)C(=O)N3C[C@H](O)CO)cc1 [Example 23]
3. CNC(=O)Nc1ccc(-c2ncc3c(n2)N2CCOC[C@@]2(C)C(=O)N3CC2CC2)cc1 [Example 4]

["> 7.50", "6.00 to 7.50", "6.00 to 7.50"]

====

- ASSAYED_SYSTEM: human mTOR (Homo sapiens)
Structures can show the parent of a compound that is named as a salt.
OBSERVABLE: IC50

| MOLECULE | IC50 |
| --- | --- |
| CC12COCCN1c1nc(-c3ccc(NC(=O)NC4CC4)cc3)ncc1N(CCCS(C)(=O)=O)C2=O (stereo not shown) | < 31.6 nM |
| CNC(=O)Nc1ccc(-c2ncc3c(n2)N2CCOCC2(C)C(=O)N3CC2CCC2)cc1 (stereo not shown) | < 31.6 nM |
| CNC(=O)Nc1ccc(-c2ncc3c(n2)N2CCOCC2(C)C(=O)N3C2CC2)cc1 (stereo not shown) | 31.6 to 1000 nM |
| CNC(=O)Nc1ccc(-c2ncc3c(n2)N2CCOCC2(C)C(=O)N3C[C@H](O)CO)cc1 (stereo partly shown) | 31.6 to 1000 nM |
| COCCCN1C(=O)[C@]2(C)COCCN2c2nc(-c3ccc(NC(=O)NC4CC4)cc3)ncc21 | < 31.6 nM |

For each of the molecules below, state IC50.
1. CC12COCCN1c1nc(-c3ccc(NC(=O)NC4CC4)cc3)ncc1N(C1CCS(=O)(=O)CC1)C2=O (stereo not shown)
2. CNC(=O)Nc1ccc(-c2ncc3c(n2)N2CCOCC2(C)C(=O)N3C(C)C)cc1 (stereo not shown)
3. CNC(=O)Nc1ccc(-c2nc(N3CCOCC3)c3c(n2)N2CCOCC2(C)C(=O)N3C)cc1 (stereo not shown)
4. CNC(=O)Nc1ccc(-c2ncc3c(n2)N2CCOCC2(C)C(=O)N3C(C)(C)C(=O)O)cc1 (stereo not shown) [Example 20, TFA salt]

31.6 to 1000 nM
< 31.6 nM
31.6 to 1000 nM
> 1000 nM

Look up IC50 for the entries below, preserving their order.
1. CNC(=O)Nc1ccc(-c2ncc3c(n2)N2CCOC[C@]2(C)C(=O)N3C[C@H](O)CO)cc1
2. CC12COCCN1c1nc(-c3ccc(NC(=O)NC4CC4)cc3)ncc1N(CC1CC1)C2=O (stereo not shown) [Example 6, TFA salt]
3. C[C@]12COCCN1c1nc(-c3ccc(NC(=O)NC4CC4)cc3)ncc1N(CC(F)(F)F)C2=O
4. CC12COCCN1c1nc(-c3ccc(NC(=O)NC4CC4)cc3)ncc1N(C1CCOC1)C2=O (stereo not shown)
5. CC(F)(F)CN1C(=O)C2(C)COCCN2c2nc(-c3ccc(NC(=O)NC4CC4)cc3)ncc21 (stereo not shown)

> 1000 nM
31.6 to 1000 nM
< 31.6 nM
< 31.6 nM
< 31.6 nM

Give one value of IC50 per listed molecule.
1. CNC(=O)Nc1ccc(-c2ncc3c(n2)N2C[C@@H](C)OC[C@]2(C)C(=O)N3CC2CC2)cc1
2. CC(F)(F)CN1C(=O)[C@]2(C)COCCN2c2nc(-c3ccc(NC(=O)NC4CC4)cc3)ncc21

1: 31.6 to 1000 nM; 2: < 31.6 nM

====

Observed IC50, system human mTOR (Homo sapiens).

Worked examples follow.
| MOLECULE | IC50 |
| --- | --- |
| CNC(=O)Nc1ccc(-c2ncc3c(n2)N2CCOCC2(C)C(=O)N3CCCOC)cc1 (centres unmarked) | < 31.6 nM |
| CNC(=O)Nc1ccc(-c2ncc3c(n2)N2CCOC[C@@]2(C)C(=O)N3C2CCOCC2)cc1 | < 31.6 nM |

I have 3 molecules here; please give me IC50 for each one.
1. CNC(=O)Nc1ccc(-c2ncc3c(n2)N2CCOCC2(C)C(=O)N3Cc2ccn(C)n2)cc1 (centres unmarked)
2. CNC(=O)Nc1ccc(-c2ncc3c(n2)N2CCOC[C@@]2(C)C(=O)N3CCCOC)cc1
3. CNC(=O)Nc1ccc(-c2ncc3c(n2)N2CCOC[C@]2(C)C(=O)N3CC2CC2)cc1

["31.6 to 1000 nM", "< 31.6 nM", "< 31.6 nM"]
